Catalogue of compounds with associated melting point

// known answers, use as guide
# melting point lookup, item COc1ccc2c(c1)S(=O)c1nccnc1N2C (stereo unspecified)
229 to 231 °C

# melting point lookup, item CC(O)C1CCC2C3CC=C4CC(O)CC(O)C4(C)C3CCC12C (stereo unspecified)
235 to 237 °C

Continuing:
# melting point lookup, item `COC(=O)C(C)(C)S(=O)(=O)N1CCC(c2ccc(-c3nccs3)c(C)c2)CC1`
111 to 114 °C

# melting point lookup, item `CCC(=O)N[C@@H](C)C(=O)N1CCC[C@H]1C(=O)NC1CCCCCCC1`
142 to 143 °C

# melting point lookup, item O=C(O)CS(=O)CCCCCNS(=O)(=O)c1ccc(Cl)cc1 (stereo unspecified)
91 to 92 °C

# melting point lookup, item `Cc1nc2ccnn2c(Cl)c1CCCl`
87 to 88 °C

# melting point lookup, item `CC(C)OC(=O)N1CCC(c2nc3cc(-c4ccc(C(=O)NC5CC5)c(F)c4)ccc3o2)CC1`
162 to 165 °C
